From: patent US20190315771A1

In this section we review reported pIC50 values for a set of compounds.
Subject of test: UniProt Q12809
Sequence (Q12809 whole entry): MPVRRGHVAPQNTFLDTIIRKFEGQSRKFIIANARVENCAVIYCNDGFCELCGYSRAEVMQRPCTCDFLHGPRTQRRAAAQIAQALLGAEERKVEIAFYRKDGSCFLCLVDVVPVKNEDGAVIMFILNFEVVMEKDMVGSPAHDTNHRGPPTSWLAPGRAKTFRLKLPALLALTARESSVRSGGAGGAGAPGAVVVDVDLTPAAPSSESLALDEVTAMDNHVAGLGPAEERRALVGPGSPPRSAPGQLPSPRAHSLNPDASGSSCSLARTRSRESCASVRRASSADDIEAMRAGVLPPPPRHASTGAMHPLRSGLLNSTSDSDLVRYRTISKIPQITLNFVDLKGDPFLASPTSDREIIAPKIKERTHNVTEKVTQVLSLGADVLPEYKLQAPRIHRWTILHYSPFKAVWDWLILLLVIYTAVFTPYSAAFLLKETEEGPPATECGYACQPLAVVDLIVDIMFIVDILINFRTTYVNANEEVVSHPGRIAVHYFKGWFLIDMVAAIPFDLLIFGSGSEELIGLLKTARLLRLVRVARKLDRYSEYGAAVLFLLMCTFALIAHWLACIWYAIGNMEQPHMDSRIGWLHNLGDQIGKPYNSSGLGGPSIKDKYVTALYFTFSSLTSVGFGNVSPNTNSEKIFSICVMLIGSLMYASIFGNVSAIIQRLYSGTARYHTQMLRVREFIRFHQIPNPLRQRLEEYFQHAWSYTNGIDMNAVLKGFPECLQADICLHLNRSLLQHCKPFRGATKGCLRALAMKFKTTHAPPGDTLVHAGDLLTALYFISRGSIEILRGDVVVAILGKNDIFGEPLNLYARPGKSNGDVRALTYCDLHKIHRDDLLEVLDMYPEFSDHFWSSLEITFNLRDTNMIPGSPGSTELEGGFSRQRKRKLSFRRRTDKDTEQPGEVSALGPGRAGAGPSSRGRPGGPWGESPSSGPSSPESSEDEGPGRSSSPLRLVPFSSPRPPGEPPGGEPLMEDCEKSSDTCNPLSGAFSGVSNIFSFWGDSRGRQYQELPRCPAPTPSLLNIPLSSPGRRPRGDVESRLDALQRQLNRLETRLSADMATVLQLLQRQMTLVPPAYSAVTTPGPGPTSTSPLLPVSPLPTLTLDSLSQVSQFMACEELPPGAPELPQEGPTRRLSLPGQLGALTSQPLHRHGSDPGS
Assay comment: hERG test, electrophysiological manual patch clamp
Assay conditions: manual patch clamp; IC50 >10 μM judged as no inhibitory effect on hERG
Scale for pIC50: -log10 of concentration given in mol/L; no unit attached.

| Compound | Reported value |
| --- | --- |
| CCCCCCO[C@@H](C)c1cccc(-c2csc(NC(=O)c3cc(Cl)c(/C=C(\C)C(=O)O)c(Cl)c3)n2)c1OC [Lusutrombopag, reference compound] | 5.63 |

For the next question, use this compound.
What the record says about C/C(=C\c1c(Cl)cc(C(=O)Nc2nc(-c3cc(Cl)cs3)c(N3C[C@@H]4CCN(C5[C@H]6C[C@@H]7C[C@@H](C[C@H]5C7)C6)[C@@H]4C3)s2)cc1Cl)C(=O)O (stereo partly drawn) [Example 52] : pIC50 is 5.10
